Source of measurements: paper PMC12406196

# System: HCoV-NL63 RNA synthesis
# assay_details: HCoV-NL63 RNA level in infected LLC-Mk2 cells, RT-PCR
# Format: cell-based, human coronavirus NL63
# experimental_setup: MOI 0.01, 96 h p.i.
Kindly supply the reported concentration that effectively suppressed HCoV-NL63 RNA synthesis values for the records listed here.
Kindly answer with a numeric value in µM, unit omitted.

The measured concentration that effectively suppressed HCoV-NL63 RNA synthesis associated with CC(=O)OC[C@H]1O[C@@H](SCc2cn(C[C@H]3O[C@@H](n4ccc(=O)[nH]c4=O)[C@H](O[Si](C)(C)C(C)(C)C)[C@@H]3O[Si](C)(C)C(C)(C)C)nn2)[C@H](OC(C)=O)[C@@H](OC(C)=O)[C@@H]1OC(C)=O reads 6.25

Entry CC(=O)OC[C@H]1O[C@@H](SCn2cc(COC[C@H]3O[C@@H](n4ccc(=O)[nH]c4=O)[C@H](O[Si](C)(C)C(C)(C)C)[C@@H]3O[Si](C)(C)C(C)(C)C)nn2)[C@H](OC(C)=O)[C@@H](OC(C)=O)[C@@H]1OC(C)=O ; concentration that effectively suppressed HCoV-NL63 RNA synthesis = 6.25

Reported concentration that effectively suppressed HCoV-NL63 RNA synthesis ( CC(=O)OC[C@H]1O[C@@H](SCc2cn(C[C@H]3O[C@@H](n4ccc(=O)[nH]c4=O)[C@H](O[Si](C)(C)C(C)(C)C)[C@@H]3O[Si](C)(C)C(C)(C)C)nn2)[C@H](OC(C)=O)[C@@H](OC(C)=O)[C@H]1OC(C)=O ) = 12.5

The compound listed as CC(=O)OC[C@H]1O[C@@H](OCc2cn(C[C@H]3O[C@@H](n4ccc(=O)[nH]c4=O)[C@H](O[Si](C)(C)C(C)(C)C)[C@@H]3O[Si](C)(C)C(C)(C)C)nn2)[C@H](OC(C)=O)[C@@H](OC(C)=O)[C@H]1OC(C)=O shows concentration that effectively suppressed HCoV-NL63 RNA synthesis equal to 12.5

----------
# System: LR7 cells
# assay_details: MTS-based cell viability assay in LR7 cells
# Parameters: species or system mouse
# experimental_setup: 50 μM, uninfected LR7 cells
readout_label: reduction of cell viability (cytotoxicity in uninfected cells)

Tested on LR7 cells: CC(=O)OC[C@H]1O[C@@H](SCn2cc(CNC(=O)[C@H]3O[C@@H](n4ccc(=O)[nH]c4=O)[C@H](O[Si](C)(C)C(C)(C)C)[C@@H]3O[Si](C)(C)C(C)(C)C)nn2)[C@H](OC(C)=O)[C@@H](OC(C)=O)[C@H]1OC(C)=O . Observed reduction of cell viability (cytotoxicity in uninfected cells): 10–30%

----------
# Tested on: murine hepatitis virus strain A59 (MHV)
# assay_details: Reduction of MHV cytopathic effect (CPE) in LR7 cells, MTS/PMS readout
# Assay type: cell-based
# experimental_setup: MOI 0.01, 24 h p.i.
readout_label: concentration above which MHV-induced CPE was significantly reduced

chemical_structure: CC(=O)OC[C@H]1O[C@@H](SCn2cc(COC[C@H]3O[C@@H](n4ccc(=O)[nH]c4=O)[C@H](O[Si](C)(C)C(C)(C)C)[C@@H]3O[Si](C)(C)C(C)(C)C)nn2)[C@H](OC(C)=O)[C@@H](OC(C)=O)[C@@H]1OC(C)=O
target_or_test_system: murine hepatitis virus strain A59 (MHV)
endpoint_value: above 12.5 μM

chemical_structure: CC(=O)OC[C@H]1O[C@@H](SCc2cn(C[C@H]3O[C@@H](n4ccc(=O)[nH]c4=O)[C@H](O[Si](C)(C)C(C)(C)C)[C@@H]3O[Si](C)(C)C(C)(C)C)nn2)[C@H](OC(C)=O)[C@@H](OC(C)=O)[C@@H]1OC(C)=O
target_or_test_system: murine hepatitis virus strain A59 (MHV)
endpoint_value: above 6.25 μM

chemical_structure: CC(=O)OC[C@H]1O[C@@H](SCc2cn(C[C@H]3O[C@@H](n4ccc(=O)[nH]c4=O)[C@H](O[Si](C)(C)C(C)(C)C)[C@@H]3O[Si](C)(C)C(C)(C)C)nn2)[C@H](OC(C)=O)[C@@H](OC(C)=O)[C@H]1OC(C)=O
target_or_test_system: murine hepatitis virus strain A59 (MHV)
endpoint_value: above 6.25 μM

chemical_structure: CC(=O)OC[C@H]1O[C@@H](OCc2cn(C[C@H]3O[C@@H](n4ccc(=O)[nH]c4=O)[C@H](O[Si](C)(C)C(C)(C)C)[C@@H]3O[Si](C)(C)C(C)(C)C)nn2)[C@H](OC(C)=O)[C@@H](OC(C)=O)[C@H]1OC(C)=O
target_or_test_system: murine hepatitis virus strain A59 (MHV)
endpoint_value: above 12.5 μM
